Data provenance is patent US20230111363A1.

# experimental-system: T1, human monocarboxylate transporter 1 (MCT1) (human, UniProt P53985 1-500)
# T1 sequence: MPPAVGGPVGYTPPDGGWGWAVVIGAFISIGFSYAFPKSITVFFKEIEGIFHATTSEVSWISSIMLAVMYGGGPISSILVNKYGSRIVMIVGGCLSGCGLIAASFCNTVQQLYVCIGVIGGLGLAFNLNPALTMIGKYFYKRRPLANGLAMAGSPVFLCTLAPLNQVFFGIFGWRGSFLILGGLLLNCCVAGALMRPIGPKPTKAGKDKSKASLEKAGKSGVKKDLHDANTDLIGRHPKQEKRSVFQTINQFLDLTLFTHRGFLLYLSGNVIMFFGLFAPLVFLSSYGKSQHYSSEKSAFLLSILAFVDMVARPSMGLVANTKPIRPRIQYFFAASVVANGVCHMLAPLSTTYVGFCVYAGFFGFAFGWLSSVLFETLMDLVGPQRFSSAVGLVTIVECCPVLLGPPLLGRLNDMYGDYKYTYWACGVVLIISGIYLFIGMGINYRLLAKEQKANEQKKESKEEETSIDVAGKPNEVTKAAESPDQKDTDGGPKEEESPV
# protocol-description: cell-based or functional assay
endpoint-name: IC50 of inhibition of CD8 T cell proliferation (nM)
Expressed in nM, but write only the number.

INPUT: Reported IC50 of inhibition of CD8 T cell proliferation, binder anti-human MCT1 antibody Ab13 (antibody, human IgG1, kappa, V domains shown, IgG1EN backbone) VH: QVQLVQSGAEVKKPGASVKVSCTVSGRSLTNYHLQWVRQAPGQGLEWMGFIRSSGNTEYNSEFKSRVTMTRDTSTSTVYMELSSLRSEDTAVYYCARNRWRHGTYYSPGYYVMDAWGQGTLVTVSS VL: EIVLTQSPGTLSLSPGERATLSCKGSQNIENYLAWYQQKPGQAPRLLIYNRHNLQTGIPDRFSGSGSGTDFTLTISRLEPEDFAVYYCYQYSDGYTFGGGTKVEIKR : ____
OUTPUT: 4

INPUT: Reported IC50 of inhibition of CD8 T cell proliferation, binder anti-human MCT1 antibody Ab7 (antibody, human IgG1, kappa, V domains shown, IgG1EN backbone) VH: QVQLVQSGAEVKKPGASVKVSCTVSGRSRTNYHLQWVRQAPGQGLEWMGFIRSSGNTEYNSEFKSRVTMTRDTSTSTVYMELSSLRSEDTAVYYCARNRWYHGTYYSPGYYVMDAWGQGTLVTVSS VL: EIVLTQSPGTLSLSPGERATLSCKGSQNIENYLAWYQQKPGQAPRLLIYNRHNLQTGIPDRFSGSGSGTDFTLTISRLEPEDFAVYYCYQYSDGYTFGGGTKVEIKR : ____
OUTPUT: 4

INPUT: Reported IC50 of inhibition of CD8 T cell proliferation, binder anti-human MCT1 antibody Ab20 (antibody, human IgG1, kappa, V domains shown, IgG1EN backbone) VH: QVQLVQSGAEVKKPGASVKVSCTVSGRSLTNYHLQWVRQAPGQGLEWMGFIRSSGNTEYNSEFKSRVTMTRDTSTSTVYMELSSLRSEDTAVYYCARNLWYHGTYYSPGYYVMDAWGQGTLVTVSS VL: EIVLTQSPGTLSLSPGERATLSCKGSQNINNYLAWYQQKPGQAPRLLIYNRHNLQTGIPDRFSGSGSGTDFTLTISRLEPEDFAVYYCYQYSDGYTFGGGTKVEIKR : ____
OUTPUT: 6
